Cited source for all entries: the supplement of paper PMC9233669

Test system: biotinyl-Val-oxazolone
Experiment: self-aminoacylation, catalytic enhancement (BVO) (fold over background); higher = more active; k-Seq, kA / k0A0; sequences stand for … in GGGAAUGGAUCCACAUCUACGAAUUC…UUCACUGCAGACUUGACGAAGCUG
Fewer inactive variants are shown than the library holds.
Below is a list of entries, each paired with its recorded self-aminoacylation value.
Reported property: self-aminoacylation

- Residue sequence: "AUUACCCAGCUCAUCGAGUGA [Fam2.1 aminoacylation ribozyme variant]"
  Endpoint value: 1.56
- Residue sequence: "CGAAACUUCAAGCAAUCGGUC [Fam1B.1 aminoacylation ribozyme variant]"
  Endpoint value: 1.18
- Residue sequence: "CCACCCUUGAAGCAAUCGGUC [Fam1B.1 aminoacylation ribozyme variant]"
  Endpoint value: 1.74
- Residue sequence: "CUGCUUCAAACAAUCGGCCUG [Fam1A.1 aminoacylation ribozyme variant]"
  Endpoint value: 3.35
- Residue sequence: "ACUACCCUGCUCAUCGAGUGA [Fam2.1 aminoacylation ribozyme variant]"
  Endpoint value: 1.85
- Residue sequence: "GUUACGCUGGUCAUCGAGUGA [Fam2.1 aminoacylation ribozyme variant]"
  Endpoint value: 4.86
- Residue sequence: "AUUCACAUAGGUCAUCGGGUG [Fam2.2 aminoacylation ribozyme variant]"
  Endpoint value: 5.09
- Residue sequence: "AUUACCCGGGUCUUCGAGUGA [Fam2.1 aminoacylation ribozyme variant]"
  Endpoint value: 4.57
- Residue sequence: "ACUACCCUGGUCAUCGCGUGA [Fam2.1 aminoacylation ribozyme variant]"
  Endpoint value: 12.1
- Residue sequence: "CUACUUCAAACAAUCGACCUG [Fam1A.1 aminoacylation ribozyme variant]"
  Endpoint value: 0.636
- Residue sequence: "AAUCACCUAGGUCAUCGCGUG [Fam2.2 aminoacylation ribozyme variant]"
  Endpoint value: 7.32
- Residue sequence: "CUACUUCAAAGAAUCGGACUG [Fam1A.1 aminoacylation ribozyme variant]"
  Endpoint value: 0.808
- Residue sequence: "CUACUUUAAACGAUCGGUCUG [Fam1A.1 aminoacylation ribozyme variant]"
  Endpoint value: 0.844
- Residue sequence: "AUUCACCUAGGUCAACGGGUA [Fam2.2 aminoacylation ribozyme variant]"
  Endpoint value: 1.08
- Residue sequence: "CCACACUUAAAGCAAUCGGUG [Fam1B.1 aminoacylation ribozyme variant]"
  Endpoint value: 2.42
- Residue sequence: "CCACACUUGAGGCAAUCGGUC [Fam1B.1 aminoacylation ribozyme variant]"
  Endpoint value: 1.81
- Residue sequence: "AUUCACCUAGGUCAUCGCGUG [Fam2.2 aminoacylation ribozyme variant]"
  Endpoint value: 7.35
- Residue sequence: "GUACUUCAAACAAUCUGUCUG [Fam1A.1 aminoacylation ribozyme variant]"
  Endpoint value: 1.56
- Residue sequence: "CUACUUCAAACAAUUGUUCUG [Fam1A.1 aminoacylation ribozyme variant]"
  Endpoint value: 0.636
- Residue sequence: "ACUCACCUAGAUCAUCGGGUG [Fam2.2 aminoacylation ribozyme variant]"
  Endpoint value: 3.13
- Residue sequence: "CUUACCCUGGUCACCGAGUGA [Fam2.1 aminoacylation ribozyme variant]"
  Endpoint value: 4.49
- Residue sequence: "AAUCACCUAGGUCCUCGGGUG [Fam2.2 aminoacylation ribozyme variant]"
  Endpoint value: 3.29
- Residue sequence: "AUUCAUCUAGGUUAUCGGGUG [Fam2.2 aminoacylation ribozyme variant]"
  Endpoint value: 2.44
- Residue sequence: "CUACUUCAGACGAUCGGUCUG [Fam1A.1 aminoacylation ribozyme variant]"
  Endpoint value: 1.01
- Residue sequence: "AAGUUUGCUAAUAGUCAGAAG [Fam3.1 aminoacylation ribozyme variant]"
  Endpoint value: 0.937
- Residue sequence: "AAGUUUGCUAAUUGUCCCAAG [Fam3.1 aminoacylation ribozyme variant]"
  Endpoint value: 1.21
- Residue sequence: "AAGUUUGUUAAUCGUCGCAAG [Fam3.1 aminoacylation ribozyme variant]"
  Endpoint value: 1.22
- Residue sequence: "CUACUUCAAACAAUCGUUUUG [Fam1A.1 aminoacylation ribozyme variant]"
  Endpoint value: 0.669
- Residue sequence: "AUUCACCUAGGUCAUCUGUUG [Fam2.2 aminoacylation ribozyme variant]"
  Endpoint value: 0.693
- Residue sequence: "AAGUUUACUUAUAGUCGCAAG [Fam3.1 aminoacylation ribozyme variant]"
  Endpoint value: 1.58
- Residue sequence: "AUGACCCUGCUCAUCGAGUGA [Fam2.1 aminoacylation ribozyme variant]"
  Endpoint value: 1.43
- Residue sequence: "AUUCACCUAGGUAAACGGGUG [Fam2.2 aminoacylation ribozyme variant]"
  Endpoint value: 2.27
- Residue sequence: "AAGUUUGCUAAUACUCGCAAA [Fam3.1 aminoacylation ribozyme variant]"
  Endpoint value: 1.05
- Residue sequence: "CUACUUCAAAUAAUCGAUCUG [Fam1A.1 aminoacylation ribozyme variant]"
  Endpoint value: 0.592
- Residue sequence: "CUACUUUAAACAAUCGGGCUG [Fam1A.1 aminoacylation ribozyme variant]"
  Endpoint value: 1.06
